- procedure_details: Lipid nanoparticle size and polydispersity by dynamic light scattering
- Assay type: physicochemical
- measurement_parameters: LNP of lipid/DSPC/cholesterol/PEG-lipid 50:10:38.5:1.5 encapsulating hEPO mRNA
So basically, if size (nm) comes in under 80 nm it's rule met, and if it's 80 nm or more it's rule not met.

Field: below-cutoff. Rule: recorded size (nm) strictly less than 80 nm. Subject: CCCCCCCCC(CCCCCC)CNC(=O)CCCCCN(CCOCCO)CCN(CCCCC(COC(=O)CCCCCCC)COC(=O)CCCCCCC)C1CCCC1 (centres unmarked) rule not met

Strictly below 80 nm: is that where size (nm) of CCCCCCCCC(CCCCCCCC)CNC(=O)CCCCCN(CCN(CCCCO)CCCCCC(=O)OCC(CCCCCCCC)CCCCCCCC)C1CCC1 sits? rule not met

Confirm or reject: size (nm) of CCCCCCCCC(CCCCCCCC)COC(=O)CCCCCN(C)CCN(CCCCCC(=O)OCC(CCCCCCCC)CCCCCCCC)C1CCC(O)CC1 (centres unmarked) lies strictly below 80 nm rule not met

size (nm) strictly < 80 nm for this compound? CCCCCCCCCOC(=O)CCCCCCCN(CCO)C1CCN(CCCCCCCC(=O)OC(CCCCCCCC)CCCCCCCC)CC1 rule met

Here's an entry: CCCCCCCCOC(=O)C(CCCCN(CCN(CCO)CCCCCC(=O)OCC(CCCCCC)CCCCCCCC)C1CCC1)C(=O)OCCCCCCCC (centres unmarked) . Is its size (nm) below 80 nm? rule met

Just wondering, is size (nm) of CCCCCCCC(=O)OCC(CCCCN(CCO)CCN(CCCCC(COC(=O)CCCCCCC)COC(=O)CCCCCCC)C1CCC1)COC(=O)CCCCCCC below 80 nm? rule met

Dear reviewer, please state whether CCCCCCCCC(CCCCCC)COC(=O)CCCCCN(CCO)CCN(CCCCC(COC(=O)CCCCCCC)COC(=O)CCCCCCC)C1CCC1 (centres unmarked) has size (nm) strictly beneath 80 nm. rule not met

A record lists CCCCCCCCC(CCCCCCCC)CNC(=O)CCCCCN(CCO)CCN(CCCCCC(=O)NCC(CCCCCCCC)CCCCCCCC)C1CCC1 . Is its size (nm) below 80 nm? rule met

size (nm) strictly < 80 nm for this compound? CCCCCCCCC(CCCCCCCC)COC(=O)CCCCCN(CCN(CCCCCC(=O)OCC(CCCCCCCC)CCCCCCCC)C1CCC(O)CC1)C1CCC1 (centres unmarked) rule not met

Please state whether size (nm) is below 80 nm for CCCCCCCCC(CCCCCC)COC(=O)CCCCCN(CCO)CCN(CCCCCC(=O)OCC(CCCCCC)CCCCCCCC)C1CCCCCC1 (centres unmarked) rule met

Find out if reported size (nm) for CCCCCCCCC(CCCCCCCC)COC(=O)CCCCCN(CCC)CCN(CCO)CCCCCC(=O)OCC(CCCCCCCC)CCCCCCCC is less than 80 nm rule met

Is it true that size (nm) reported for CCCCCCCCCCCC(=O)NCCCCCN(CCN(CCO)CCCCCNC(=O)CC(CCCCCCCC)CCCCCCCC)C1CCCCC1 is less than 80 nm? rule not met

Say whether its size (nm) is strictly beneath 80 nm. Entry: CCCCCCCCC(CCCCCC)CNC(=O)CCCCCN(CC=C(C)C)CCN(CCO)CCCCC1COC(C(CCCCCC)CCCCCCCC)OC1 (centres unmarked) rule met

Input CCCCCCCCC(=O)OCC(CCCCN(CCO)CCN(CCCCC(COC(=O)CCCCCCCC)COC(=O)CCCCCCCC)C1CCC1)COC(=O)CCCCCCCC ; condition: size (nm) strictly below 80 nm. Does it hold? rule met

Decide: size (nm) of CCCCCCCCCCCOC(=O)CCCCCN(CCN(CCO)CCCCCC(=O)OCC(CCCCCCCC)CCCCCCCC)C1CCCCCC1 strictly below 80 nm? rule met

Here's an entry: CCCCCCCCC(CCCCCCCC)COC(=O)CCCCCN(CCCCCC)CCN(CCCCCC(=O)OCC(CCCCCCCC)CCCCCCCC)C1CCC(O)CC1 (centres unmarked) . Is its size (nm) below 80 nm? rule met

Field: below-cutoff. Rule: recorded size (nm) strictly less than 80 nm. Subject: CCCCCCCCC(CCCCCCCC)COC(=O)CCCCCN(CCNc1c(NC)c(=O)c1=O)CCN(CCCCCC(=O)OCC(CCCCCCCC)CCCCCCCC)C1CCC1 rule met

Take the compound CCCCCCCCC(CCCCCCCC)CC(=O)NCCCCCN(CCN(CCO)CCCCCOC(=O)CC(CCCCCCCC)CCCCCCCC)C1CCCCC1 and say whether its size (nm) is less than 80 nm. rule not met

Does CCCCCCCCCCCOC(=O)CCCCCN(CCN(CCO)CCCCCC(=O)OCC(CCCCCCC)CCCCCCC)C1CCCCC1 have size (nm) strictly under 80 nm? rule not met

Please state whether size (nm) is below 80 nm for CCCCCCCCC(CCCCCCCC)CC(=O)NCCCCCN(CCO)CCN(CCCCCNC(=O)CC(CCCCCCCC)CCCCCCCC)C1CCC1 rule met

These data points were gathered from patent US20230348362A1.
